# Tested on: α7 integrin promoter
# ASSAY COMMENT: muscle cell-based assay: α7βgal+/− myoblasts/myotubes, LacZ reporter, β-galactosidase cleavage of FDG
# Parameters: species or system mouse
# CONDITION SUMMARY: Table 12; curve fit
Could you please report measured Fit HillSlope for the items listed next?
Numbers only.

>>> result("CCc1ccc(N(C(=O)c2snc(C(N)=O)c2N)C(C(=O)NC2CCCC2)c2ccco2)cc1 (centres unmarked)")
1.2475
>>> result("Cc1ccc(-c2onc3ccc(C(=O)/C=C/N(C)C)cc23)cc1")
1.7529
>>> result("CCCn1c(-c2cc(OC)c(OC)c(OC)c2)nc2c1c(=O)[nH]c(=O)n2Cc1ccccc1")
1.1341
>>> result("O=c1oc2c(-c3cccc(F)c3)cc(O)cc2s1")
2.9023
>>> result("O=Cc1ccc(C(=O)OCC(=O)N2CCCC2)cc1")
3.132

Look up Fit HillSlope for the entries below, preserving their order.
1. O=C(Nc1ccccc1F)c1ccc([N+](=O)[O-])s1
2. CCNC(=O)CSc1nc(-c2ccc(F)cc2)cs1
3. CC(=O)Nc1ccc(NC(=O)[C@@H](NC(=O)c2cccc(C)c2)C(C)C)cc1
4. Cc1ccc(C2Nc3cccc4cccc(c34)N2)s1
5. Cc1ccc(NC(=O)NCc2nc3ccccc3n2C)cc1

1: 4.5045; 2: 1.1705; 3: 1.331; 4: 2.1211; 5: 1.8617

* * *

Record form. Attribute: Results in a α7+/− β-galactosidase assay, Myotubes, 5 uM. Fill in for each entry.
# Test system: α7 integrin promoter
# ASSAY COMMENT: muscle cell-based assay: α7βgal+/− myoblasts/myotubes, LacZ reporter, β-galactosidase cleavage of FDG
# Design: species or system mouse
# CONDITION SUMMARY: Myotubes; compound at 5 uM
Numbers only.

For orientation, consider the following solved cases.
>>> result("O=CN1CCN(C(=O)CC(c2ccccc2)c2cc(Br)ccc2O)CC1 (centres unmarked) [drawing 487]")
0.1295
>>> result("CCOc1ccccc1NC(=O)COC(=O)CNS(=O)(=O)c1ccc(C)cc1 [drawing 440]")
"−0.2547"

Your task in this section: give Results in a α7+/− β-galactosidase assay, Myotubes, 5 uM for each listed record.
1. CCOC(=O)c1sc(=N)n(-c2ccc(OC)cc2)c1C [drawing 503]
2. Cn1cc(CN(CCO)Cc2cccs2)c(-c2ccccc2F)n1 [drawing 315]

["−0.3446", 0.1949]

* * *

# Tested on: α7 integrin promoter
# ASSAY COMMENT: muscle cell-based assay: α7βgal+/− myoblasts/myotubes, LacZ reporter, β-galactosidase cleavage of FDG
# Set-up: species or system mouse
I'd appreciate it if you marked entries YES when Results in a α7+/− β-galactosidase assay, Myotubes, 5 uM is lower than -0.002 and NO when it is not.

>>> group_label("COc1ccc(-c2c[nH]nc2-c2ccc(OC)cc2)cc1 [drawing 389]")
"NO"
>>> group_label("O=C(Cn1nc(-c2ccc(Cl)cc2)ccc1=O)N1CCC2(CC1)OCCO2 [drawing 395]")
"YES"
>>> group_label("O=C(Nc1ccccc1Cl)C1CCCN1C(=O)OCc1ccccc1 (stereo not shown)")
"YES"
>>> group_label("C#CC1(O)CCC2C3CCC4=C/C(=N/OCC(=O)NCC(=O)NC(C(=O)O)C(C)C)CC[C@]4(C)C3CC[C@@]21C (stereo partly shown)")
"NO"
>>> group_label("COc1cc([N+](=O)[O-])cc(/C=N/NC(=O)C(O)(c2ccccc2)c2ccccc2)c1O")
"YES"
>>> group_label("O=C1Nc2ccccc2/C1=C/c1c[nH]cn1")
"NO"

As a next step, examine the molecule that follows.
I'd appreciate it if you could check whether "O=C(COc1ccc(Cl)cc1)N1CCN(C2CCCC2)CC1.O=C(O)C(=O)O" has Results in a α7+/− β-galactosidase assay, Myotubes, 5 uM smaller than -0.002. YES
